assayed_target: T1, PDZD7_3, Q9H5P4
T1 sequence (Q9H5P4 857-944, limits assumed, looked up): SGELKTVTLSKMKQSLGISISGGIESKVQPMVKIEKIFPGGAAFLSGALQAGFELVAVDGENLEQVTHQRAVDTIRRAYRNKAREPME
test_protocol: holdup assay
Design: key: below the threshold = too weak to quantify, mostly under pKd 3.1 to 4
condition_set: plain residues with an end cap or a label only (N-terminal biotin on a linker: ado-ado)
property_measured: pKd

INSERT INTO assay_data (binder, property_measured, test_result) VALUES
  ('QLKSGRDSTV [TMEM178A, Q8NBL3]', 'pKd', 4.19),
  ('TNSKQGETTV [FZD1, Q9UP38]', 'pKd', 4.53),
  ('KKTPVSRSHL [SLC22A3, O75751]', 'pKd', 3.91),
  ('TFSRRPKTRV [CD226, Q15762]', 'pKd', 4.5),
  ('GQNMTVSVVI [PRLHR, P49683]', 'pKd', 4.4),
  ('IGHEDLETAV [DGKI, O75912]', 'pKd', 4.59),
  ('ADEMICITTL [CACNA1D, Q01668]', 'pKd', 5.57);
